Hello, the source for this data is paper PMC10942865, in case you need it.

B1: Flag-PLK4 wt (polo-like kinase 4), full-length [human] / CEP192, endogenous [human (endogenous in HEK293T)] (parent complex)
chain 1: MATCIGEKIEDFKVGNLLGKGSFAGVYRAESIHTGLEVAIKMIDKKAMYKAGMVQRVQNEVKIHCQLKHPSILELYNYFEDSNYVYLVLEMCHNGEMNRYLKNRVKPFSENEARHFMHQIITGMLYLHSHGILHRDLTLSNLLLTRNMNIKIADFGLATQLKMPHEKHYTLCGTPNYISPEIATRSAHGLESDVWSLGCMFYTLLIGRPPFDTDTVKNTLNKVVLADYEMPSFLSIEAKDLIHQLLRRNPADRLSLSSVLDHPFMSRNSSTKSKDLGTVEDSIDSGHATISTAITASSSTSISGSLFDKRRLLIGQPLPNKMTVFPKNKSSTDFSSSGDGNSFYTQWGNQETSNSGRGRVIQDAEERPHSRYLRRAYSSDRSGTSNSQSQAKTYTMERCHSAEMLSVSKRSGGGENEERYSPTDNNANIFNFFKEKTSSSSGSFERPDNNQALSNHLCPGKTPFPFADPTPQTETVQQWFGNLQINAHLRKTTEYDSISPNRDFQGHPDLQKDTSKNAWTDTKVKKNSDASDNAHSVKQQNTMKYMTALHSKPEIIQQECVFGSDPLSEQSKTRGMEPPWGYQNRTLRSITSPLVAHRLKPIRQKTKKAVVSILDSEEVCVELVKEYASQEYVKEVLQISSDGNTITIYYPNGGRGFPLADRPPSPTDNISRYSFDNLPEKYWRKYQYASRFVQLVRSKSPKITYFTRYAKCILMENSPGADFEVWFYDGVKIHKTEDFIQVIEKTGKSYTLKSESEVNSLKEEIKMYMDHANEGHRICLALESIISEEERKTRSAPFFPIIIGRKPGSTSSPKALSPPPSVDSNYPTRERASFNRMVMHSAASPTQAPILNPSMVTNEGLGLTTTASGTDISSNSLKDCLPKSAQLLKSVFVKNVGWATQLTSGAVWVQFNDGSQLVVQAGVSSISYTSPNGQTTRYGENEKLPDYIKQKLQCLSSILLMFSNPTPNFH
chain 2: MEDFRGIAEESFPSFLTNSLFGNSGILENVTLSSNLGLPVAVSTLARDRSSTDNRYPDIQASYLVEGRFSVPSGSSPGSQSDAEPRERLQLSFQDDDSISRKKSYVESQRLSNALSKQSALQMETAGPEEEPAGATESLQGQDLFNRASPLEQAQDSPIDFHLQSWMNNKEPKIVVLDAGKHFEDKTLKSDLSHTSLLENEKLILPTSLEDSSDDDIDDEMFYDDHLEAYFEQLAIPGMIYEDLEGPEPPEKGFKLPTNGLRQANENGSLNCKFQSENNSSLISLDSHSSETTHKESEESQVICLPGTSNSIGTGDSRRYTDGMLPFSSGTWGTEKEIENLKGIVPDLNSECASKDVLVKTLRAIDVKLNSDNFHDANANRGGFDLTDPVKQGAECPHQNKTVLHMDGCLDTETPTVSIQENVDVASLKPISDSGINFTDAIWSPTCERRTCECHESIEKNKDKTDLPQSVVYQNEEGRWVTDLAYYTSFNSKQNLNVSLSDEMNEDFRSGSEAFDLIAQDEEEFNKEHQFIQEENIDAHNTSVALGDTSWGATINYSLLRKSRSTSDLDKDDASYLRLSLGEFFAQRSEALGCLGGGNNVKRPSFGYFIRSPEKREPIALIRKSDVSRGNLEKEMAHLNHDLYSGDLNEQSQAQLSEGSITLQVEAVESTSQVDENDVTLTADKGKTEDTFFMSNKPQRYKDKLPDSGDSMLRISTIASAIAEASVNTDPSQLAAMIKALSNKTRDKTFQEDEKQKDYSHVRHFLPNDLEKSNGSNALDMEKYLKKTEVSRYESALENFSRASMSDTWDLSLPKEQTTQDIHPVDLSATSVSVRAPEENTAAIVYVENGESENQESFRTINSSNSVTNRENNSAVVDVKTCSIDNKLQDVGNDEKATSISTPSDSYSSVRNPRITSLCLLKDCEEIRDNRENQRQNECVSEISNSEKHVTFENHRIVSPKNSDLKNTSPEHGGRGSEDEQESFRPSTSPLSHSSPSEISGTSSSGCALESFGSAAQQQQPPCEQELSPLVCSPAGVSRLTYVSEPESSYPTTATDDALEDRKSDITSELSTTIIQGSPAALEERAMEKLREKVPFQNRGKGTLSSIIQNNSDTRKATETTSLSSKPEYVKPDFRWSKDPSSKSGNLLETSEVGWTSNPEELDPIRLALLGKSGLSCQVGSATSHPVSCQEPIDEDQRISPKDKSTAGREFSGQVSHQTTSENQCTPIPSSTVHSSVADMQNMPAAVHALLTQPSLSAAPFAQRYLGTLPSTGSTTLPQCHAGNATVCGFSGGLPYPAVAGEPVQNSVAVGICLGSNIGSGWMGTSSLCNPYSNTLNQNLLSTTKPFPVPSVGTNCGIEPWDSGVTSGLGSVRVPEELKLPHACCVGIASQTLLSVLNPTDRWLQVSIGVLSISVNGEKVDLSTYRCLVFKNKAIIRPHATEEIKVLFIPSSPGVFRCTFSVASWPCSTDAETIVQAEALASTVTLTAIAESPVIEVETEKKDVLDFGDLTYGGWKALPLKLINRTHATVPIRLIINANAVAWRCFTFSKESVRAPVEVAPCADVVTRLAGPSVVNHMMPASYDGQDPEFLMIWVLFHSPKKQISSSDILDSAEEFSAKVDIEVDSPNPTPVLRSVSLRARAGIARIHAPRDLQTMHFLAKVASSRKQHLPLKNAGNIEVYLDIKVPEQGSHFSVDPKNLLLKPGEEHEVIVSFTPKDPEACEERILKIFVQPFGPQYEVVLKGEVISSGSKPLSPGPCLDIPSILSNKQFLAWGGVPLGRTQLQKLALRNNSASTTQHLRLLIRGQDQDCFQLQNTFGSEQRLTSNCEIRIHPKEDIFISVLFAPTRLSCMLARLEIKQLGNRSQPGIKFTIPLSGYGGTSNLILEGVKKLSDSYMVTVNGLVPGKESKIVFSVRNTGSRAAFVKAVGFKDSQKKVLLDPKVLRIFPDKFVLKERTQENVTLIYNPSDRGINNKTATELSTVYLFGGDEISRQQYRRALLHKPEMIKQILPEHSVLQNINFVEAFQDELLVTEVYDLPQRPNDVQLFYGSMCKIILSVIGEFRDCISSREFLQPSSKASLESTSDLGASGKHGGNVSLDVLPVKGPQGSPLLSRAARPPLDQLASEEPWTVLPEHLILVAPSPCDMAKTGRFQIVNNSVRLLRFELCWPAHCLTVTPQHGCVAPESKLQILVSPNSSLSTKQSMFPWSGLIYIHCDDGQKKIVKVQIREDLTQVELLTRLTSKPFGILSPVSEPSVSHLVKPMTKPPSTKVEIRNKSITFPTTEPGETSESCLELENHGTTDVKWHLSSLAPPYVKGVDESGDVFRATYAAFRCSPISGLLESHGIQKVSITFLPRGRGDYAQFWDVECHPLKEPHMKHTLRFQLSGQSIEAENEPENACLSTDSLIKIDHLVKPRRQAVSEASARIPEQLDVTARGVYAPEDVYRFRPTSVGESRTLKVNLRNNSFITHSLKFLSPREPFYVKHSKYSLRAQHYINMPVQFKPKSAGKFEALLVIQTDEGKSIAIRLIGEALGKN

# Variants of: B1
# ASSAY PROTOCOL: co-immunoprecipitation (IP against Flag tag, Western blot quantification); HEK293T cells, 48 h overexpression, N = 3; read off a plot
Catalogue of variants with associated ratio to parent
READOUT LABEL: ratio to parent

variant_label="chain 1 I602E" obs_value=~0.01
variant_label="chain 1 K699A" obs_value=~0.1
variant_label="chain 1 R691A" obs_value=~1.5
variant_label="chain 1 K608A" obs_value=~0.1
